Kindly find below Ki information for Mu-type opioid receptor (Homo sapiens, UniProt P35372) taken from the literature.

// known answers, use as guide
compound: CN(CCCc1ccccc1)[C@H]1CCCC[C@@H]1OCCCc1ccccc1
result: 3.1 µM
--
compound: C[C@@H]1O[C@@H](OC[C@H]2O[C@@H](Oc3c(-c4ccc(O)c(O)c4)oc4cc(O)cc(O)c4c3=O)[C@H](O)[C@@H](O)[C@@H]2O)[C@H](O)[C@H](O)[C@H]1O
result: > 10 µM
--
compound: N[C@H](CS(=O)(=O)O)C(=O)O
result: > 10 µM

Hello, I am looking for reported Ki with Mu-type opioid receptor (Homo sapiens, UniProt P35372) for "CN(C)[C@H]1CCCC[C@@H]1OCCCc1ccccc1" . Could you help? 2.3 µM

Now the same for "N[C@H](CCS(=O)(=O)O)C(=O)O" > 10 µM

Now the same for "N[C@@H](CS)C(=O)O" > 10 µM

Now the same for "O=c1cc(O)cc2oc(-c3ccc(O)c(-c4c(O)cc(O)c5c(=O)cc(-c6ccc(O)cc6)oc45)c3)cc(O)c1-2" > 10 µM

Now the same for CC(C)=CCC[C@]1(C)[C@@H](CC=C(C)C)C[C@]2(CC=C(C)C)C(=O)C(CC=C(C)C)C(=O)[C@]1(C(=O)C(C)C)C2=O (some centres undefined) > 10 µM

Now the same for NC(CS(=O)O)C(=O)O (centres undefined) > 10 µM
